Experiment summary: yeast display, Sf9 membrane polyspecificity reagent, FACS + sequencing; frameworks hold sequencing errors
Quantity name: polyreactivity (PSR sort gate)

Example sequences with recorded polyreactivity (PSR sort gate):
1. QVQLVESGGGLVQAGGSLRLSCAASGRTIDLNAMGWYRQAPGKERELVAAITSSGSTNYADSVKGRFTISRDNAKNTVYLQMNSLKPDDTAVYYCNKDPIYSAEYWVGSVGFDYWGQGTQVTVSS : low polyreactivity
2. QVQLVESGGGLVQAGGSLRLSCAASGSNLVTNSMGWYRQAPGKERELVATITSSGTSTYYADSVKGRFTISRDNAKNTVYLQMNSLKPEDTAVYYCNADDQFAYVVYLWEYHIVQYDYWGQGTQVTVSS : high polyreactivity
3. QVQLVESGGGLVQAGGSLRLSCAASGGTFHRNAMGWYRQAPGKERELVAAITSSGGSTNYADSVKGRFTISRDNAKYTVYLQMNSLKPEETAVYYCATDRYRYTSHPWSRGFDYLGQGTQVTVSS : low polyreactivity
4. QVQLVESGGGLVQAGGRLRLSCAASGRTFYTYAMGWYRQAPGKERELVAAITSGGSTYSADSVKGRFTISRDNAKNTVYLQMNSLKPEDTAVYYCAAEFYYWRGFDYWGQGTQVTVSS : low polyreactivity
5. QVQHVESGGGLVQAGGSLRLSCAASGRTYRYNAMGWYRQAPGKETELVAAITGGGSTNYADSVKGRFTISRDNAKYTVYLQMNSLKPEDTAVYYCATGGFKYWWLYPYDYWGQGTQVTVSS : low polyreactivity
6. QVQLGESGGGLVQAGGSLRLSCAASGIIFGYYAMGWYRQAPGKERELVAAITWSGGSTYYADSVKGRFTISRDNAKYTVYLQMNSLKPEDTAVYYCAASAYVQPYDYWGQGTQVTVSS : high polyreactivity
7. QVQLVESGGGLVQAGGSLRLICAASGRNFTKYAMGLYRQAPGKERELVAAINFRGDRTYYADSVKGRYTISRDNAKNTVYLQMNSLKPEDTAVYYCAAEWSTYWLFNYEYWGQGTQVTVSS : high polyreactivity
8. QVQLVESGGGLVQAGGSLRLSCAASGSTFYAYTMGWYRQAPGKERELVARISGRGGSTYYADSVKGRFTISRDIAKNTVYLQMNSLKPEDTAVYYCAARVYGTYRGIQYGYWGQGTQVTVSS : high polyreactivity
9. QVQLVESGGGLVQAGGSLRLSCAASGRIIGGNAMGWYRPAPGKEREFVAAIRASGGSTHYADSVKGRFTISRDNAKNTVYLQMNSLKPEDTAVYYCNTYRARLGTTFIDYDYWGQGTQVTVSS : high polyreactivity
10. QVQLVESGGGLDQAGGSLRLSCAASGRTYYRYAMGWYRQAPGKESELVAAITWSGGSSYYADSVKGRFTTSRDNAKNTVYLQRNTLKPEDTAVYYCARRLYPYRPTAYDSWGQGTQVTVAS : low polyreactivity

Challenge: Value lookup for polyreactivity (PSR sort gate); key = QVQLVESGGGLVQAGGSLRLSCAASGFTFDFYAMGWYRQAPGKERELVAAISKNDGTTYYADSVKGRFTISRDNAKNTVYLQMNSLKPEDTAVYYCAAESGYPVYTYVSSGDYWGQGTQVTVSS
Response given: low polyreactivity

Challenge: Value lookup for polyreactivity (PSR sort gate); key = QVQLVESGGGLVQAGGSLRLSCAASGRIFKANDMGWYRQAPGKERELVAITSSDSTNYADSVKGRFTISRDNAKNTVYLQMNSLKPEDTAVYYCAALSYYYSDRMDYWGQGTQVTVSS
Response given: low polyreactivity

Challenge: Value lookup for polyreactivity (PSR sort gate); key = QVQLVESGGGLVQAGGSLRLSCAASGRTFYTNAMGWYRQAPGKERELVAAISRGGGRTYYADSVKGRFTISRDNAKNTVYLQMNSLKPEDTAVYYCAASPYQGQGREYYYWGQGTQVTVSS
Response given: high polyreactivity

Challenge: Value lookup for polyreactivity (PSR sort gate); key = PVQLVESGGGLVQAGGSLRLSCAASGSIFDLNAMGWYRQAPGKERELVAAISSGGGTYYADSVKGRFTISLDNAKNTVYLQMNSLKPEDTAVYSCNRVTRGSYNYWGQGTQVTVSS
Response given: high polyreactivity

---

Experiment summary: yeast display, Sf9 membrane polyspecificity reagent, FACS + sequencing; frameworks hold sequencing errors
Quantity name: polyreactivity (PSR sort gate)

Example sequences with recorded polyreactivity (PSR sort gate):
1. QVQLVESGGGLVQEGGSLRLICAASGRIFGDYGMGWYRQAPGKERELVAAITDRGGTTYYADSVKGRFTISRDNAKNTVYLQMNSLNPEDTAVYYCNARQSDIFDYDYWGQGTQVTVSS : low polyreactivity
2. QVQLVESGGGLVQARGSLRLSCAASGFTFPQYAMAWYRQAPGKERELVAVISWSGSSTYYADSVKGRFTISRDNAKNTVYLQMNSLKPEDTAVDYCNTRKLYQVDYDYWGQGTQVTVSS : high polyreactivity
3. QVQLVESGGGLVQAGGSLRLSCAASGSIFRQYAMGWYRQAPGKERELVAAITYSGGNTYYADSVKGRFTISRDNAKNTVYLQMNSLKPEDTAVYYCAADYGSRSWEYNYWGQGTQVTVSS : low polyreactivity
4. QVQLVDSGGGLVQAGGSLRLSCAASGFTFGPYAMGWYRQAPGKERELGARITYRTGSTYYGDSVKGRFTISRDNAKNTVYLQINSLKPEDTAVYYCAAAYYCGQGTQVTVSS : high polyreactivity

Challenge: Value lookup for polyreactivity (PSR sort gate); key = QDQLVESGGGLVQAGGSIRLSCAASGYIFLLYDMGWYRQAPGKERDMVATITSGGGTYYADSVKGPFTISRDNAKNTVYLQMNSLKPEDTAVYYCNADLYRWTGRSYWDKHGYWGQVTQVTVSS
Response given: low polyreactivity

---

Experiment summary: yeast display, Sf9 membrane polyspecificity reagent, FACS + sequencing; frameworks hold sequencing errors
Quantity name: polyreactivity (PSR sort gate)

Example sequences with recorded polyreactivity (PSR sort gate):
1) QVQLQESGGGLVQAGGSLRLSCAASGNISVTGFMGWYRQAPVKERELVASIGIGGTTYYADSVKGRFSISRDNAKNTVYLQMNSLKPEDTAVYYCAARYLYYAYSYWGQGSQVTVSS : low polyreactivity
2) QVQLVESGGGLVQAGGSLRLSCAASGSIYGYYVMGWNRQAPGKERELVAAISRSGGSTYYADSVKGRFTISRDNAKNTFYLQMNSLKPEDTGVYYCAASFAVRYPRLDYWGQGTQVTVSS : high polyreactivity
3) QVQLVESGGGLVQAGGSLRLSCAASGSTFYIYAMGWYRQAPGKERELVARITRGGTTYADSVKGRFTISRDNAKNTVYLQINSLKPEDTAVYYCAARSFNIRGRYDYWGQGTQVTVSS : high polyreactivity
4) QVQLVESGGGLVQAGGSLRLSCAASGRTFYLYTMGWYRQAPGKERELVAAINGSGGSTYYADSVKGRFTISRDNAKNTVYLQMNSLKPEATAVYYCAVLYRYGYDYWGQGTQVTVSS : low polyreactivity

As a next step, examine the sequence that follows.
Challenge: Value lookup for polyreactivity (PSR sort gate); key = QVQLEESGGGLVQAGGSLRLSCAASGITFERYVMGWYRQAPGKERELVASISRSGSTYYADSVKGRFTISRDNAKNTVYLQMNSLKPEDTAVYYCNADRFWFHWVYSRYHYDYWGQGTQVTVSS
Response given: high polyreactivity

---

Experiment summary: yeast display, Sf9 membrane polyspecificity reagent, FACS + sequencing; frameworks hold sequencing errors
Quantity name: polyreactivity (PSR sort gate)

Example sequences with recorded polyreactivity (PSR sort gate):
1) QVQLVESWGGLVQAGGRLRLSCAASGRIFWRYAMGWYRQAPGKERELVAAISGRGASTYYADSVKGRFTISRDNAKNTVYLQMNSLKPEDTAVYYCAASLRYRYRYYASDYGYWGQGTQVTVSS : high polyreactivity
2) QVQLVESGGGLVQAGGSLRLSCAASGRTFPGYGMGWYRQAPGKERELVAVITSNGGITYYADSVKWRFTISRDIAKYTVYLVMNRLIAEDTAVYFCAAYEIYYEFVCWGQGSQVTVSS : low polyreactivity
3) QVQLVESGGGLVQAGGSLRLSCAASGRTFGSYAMGWYRQAPGKERELVAAIRYRGGSTYYADSVKGRFTISRDNAKNTVYLQMNSLKPEDTAVYYCAAKQGRYNIYSNYDYWGQGTQVTVSS : high polyreactivity
4) QVQLVESGGGLVQAGGSLRLSCAASGRLFSYNAMGWYSQAPGKERELVAGITYGSTYYADSVKGRFRISRDNAKNTVYLQMNSLKPEDTAVYYSAADQSYTSVHGYRSDTLMDYWGQGTQGTVSS : low polyreactivity
5) QVQLVESGGGLVQAGGSLRLSCAASGFIFATNPMGWYRQAPGKERELVAASSTYYADSVKGRFTISRDNAKNTVYLQMNSLKPEDTAVYYCNADRDSYIGFVDWAGEYWGQGTQVTVSS : low polyreactivity
6) QVQLVESGGGLVQAGGSLRLSCAASGSTSKWYAMGWYRPAPGKERELVAAITKTGGRTYYADSVKGRFTISRDNAKNTVYLQMNSLKPEDTAVYYCAVEYLRGFIVIYDYWGQGTQVTVSS : high polyreactivity
7) QVQLVESGGGLVQAGGSLRLSCAASGTIFSRNAMGWYRQAPGKERELVAAINARGGSTYYADSVKGRFTISRDNAKNTVYLQMNSLKPEDTAVYYCAARYGVGRADYYWGQGTQVTVSS : high polyreactivity
8) QVQLVESGGGLVQAGGSLRLSCAASGLIFDYYPMGWYRTAPGKERELVAAISYSGGRTYYADSVKGRFTISRDKAKNTVYLQMNSLKPEDTAVYYCNKVVLQPVIVDHDYWGQGTQVTVSS : low polyreactivity

As a next step, examine the sequence that follows.
Challenge: Value lookup for polyreactivity (PSR sort gate); key = QVQLVESGGGLVQAGGSLRLSCAASGRIYYSNVMGWYRQAPGTERELVAAISGRTGGTYYADSVKGRFTISRDNAKNTVYLQMNSLKPEDTAVYYCAARVIYYYGYCTYDYWGQGTQVTVSS
Response given: low polyreactivity
